- Test system: SK-MEL-5
- protocol: cytotoxic activity in cell culture on melanoma cell line SK-MEL-5
- Format: cell-based
- assay.conditions: SK-MEL-5 melanoma cell line obtained from human tumors
measure.name: IC50

Value of IC50 reported for the compound c1cnc2c([O][Ga]([O]c3cccc4cccnc34)[O]c3cccc4cccnc34)cccc2c1 [tris(hydroxyquinolinolato)gallium(III)] is 760 nM

###

- Test system: SK-MEL-28
- protocol: cytotoxic activity in cell culture on melanoma cell line SK-MEL-28
- Assay type: cell-based
- assay.conditions: SK-MEL-28 melanoma cell line obtained from human tumors
measure.name: pIC50
// pIC50 is dimensionless: -log10 of concentration (M)

Value of pIC50 reported for the molecule c1cnc2c([O][Ga]([O]c3cccc4cccnc34)[O]c3cccc4cccnc34)cccc2c1 [tris(hydroxyquinolinolato)gallium(III)] is 4.46
